- PROTOCOL NOTES: MTT cytotoxicity assay against normal WISH cells
- Type: cell-based
- MEASUREMENT SETUP: human, WISH normal cells
MEASUREMENT LABEL: viability at 100 µM

Q: Look up viability at 100 µM: O=C1NN=C(c2ccccc2)/C1=N/Nc1ccc(F)cc1F
Ans: ~78%
